Listing of entries alongside the reported Tumour SUVmax 1 h pi.
Tested on: LNCaP (human PSMA expressing prostate cancer cell line) tumour
Parameters: species or system mice
Conditions: mouse, in vivo
Field format: numeric only.

Completed entries (count: 2):
Compound	Test System	Tumour SUVmax 1 h pi
CC(=O)N(O)CCCCCNC(=O)CCC(=O)N(O)CCCCCNC(=O)CCC(=O)N(O)CCCCCNc1c(NCc2ccc(C(=O)NCCCCC(NC(=O)NC(CCC(=O)O)C(=O)O)C(=O)O)cc2)c(=O)c1=O (single isomer, unassigned) [^68Ga(1), metal not drawn]	LNCaP (human PSMA expressing prostate cancer cell line) tumour	1.0
CC(=O)N(O)CCCCCNC(=O)CCC(=O)N(O)CCCCCNC(=O)CCC(=O)N(O)CCCCCNc1c(NCCNC(=O)CN(CCN(CC(=O)O)CC(=O)Nc2ccc(C(=O)NCCCCC(NC(=O)NC(CCC(=O)O)C(=O)O)C(=O)O)cc2)CC(=O)O)c(=O)c1=O (stereo not drawn) [^89Zr(2), metal not drawn]	LNCaP (human PSMA expressing prostate cancer cell line) tumour	0.7

So what's the measured Tumour SUVmax 1 h pi for this one? CC(=O)N(O)CCCCCNC(=O)CCC(=O)N(O)CCCCCNC(=O)CCC(=O)N(O)CCCCCNc1c(NCc2ccc(C(=O)NCCCCC(NC(=O)NC(CCC(=O)O)C(=O)O)C(=O)O)cc2)c(=O)c1=O (single isomer, unassigned) [^89Zr(1), metal not drawn]
1.1
